# Test system: 786-0 renal
# experiment: NCI-60 one-dose screen, 48 h (100 = growth as untreated, 0 = no growth, -100 = all killed)
# conditions.used: 10 µM unless noted
The panel holds about 83,000 compounds, 20% with a hit somewhere; the sample as a whole holds those more often.
Recorded growth for the following molecules
measurement.name: growth (%)

molecule	measured.target	numeric.value
COc1cc2c(c(OC)c1OC)CCC(c1cccc(NC(=O)c3cccc(Cl)c3)c1)O2 (centres undefined)	786-0 renal	96.7
CCNc1nc(-c2ccc(Cl)c(OC)c2)c(-c2ccnc(NCCNS(=O)(=O)c3ccc(Cl)cc3)n2)s1	786-0 renal	6.16
O=C(/C=C\c1ccc(O)c(O)c1)c1ccccc1O	786-0 renal	100
C=C(C)[C@@H]1CC[C@]2(COC(=O)c3cccnc3)CC[C@]3(C)[C@H](CC[C@@H]4[C@@]5(C)CCCN(C(=O)c6cccnc6)C(C)(C)[C@@H]5CC[C@]43C)[C@@H]12	786-0 renal	45.1

* * *

# Tested on: MOLT-4 leukemia
# experiment: NCI-60 one-dose screen, 48 h
# conditions.used: 10 µM unless noted
This is part of a sample that, as a whole, favours compounds with a hit. Of some 83,000 tested, about 20% had one in any assay. Calls of active or inactive are those of the source. The calls were made as follows: active = growth percent below 10; inactive = the rest.
Classes used: y for active, n for inactive

molecule	measured.target	class.label
COc1cc(C)cc(-c2c(-c3cc(N4CC(O)C4)nc(-c4cccnc4)n3)cnn2C)c1	MOLT-4 leukemia	n
COc1cc2c(cc1-c1c(C)noc1C)ncc1nc(C3CCOCC3)n(C3CCC(OC(F)F)CC3)c12 (centres undefined)	MOLT-4 leukemia	n
c1ccc(-c2nc(N3CCNCC3)c3oc(-c4ccccc4)nc3n2)cc1	MOLT-4 leukemia	y
COc1ccc(N/N=C/c2ccc3c(c2)Sc2ccccc2N3C)cc1	MOLT-4 leukemia	n
O=c1ccc2nc(-c3ccccc3)nn(-c3ccccn3)c-2c1	MOLT-4 leukemia	y
COc1cc2c(c(OC)c1OC)CCC(c1cccc(C(=O)Nc3ccc([N+](=O)[O-])cc3)c1)O2 (centres undefined)	MOLT-4 leukemia	y
Cc1ccc(OCCOCCOCCOCCOc2ccc(C)n(O)c2=S)c(=S)n1O	MOLT-4 leukemia	y
COC(=O)[C@H](C)NC(=O)[C@@H]1CCCN1C(=O)CNC(=O)[C@H](C)N	MOLT-4 leukemia	n
FC(F)(F)c1cccc(-c2nnn(Cc3cc(-c4cccc(Cl)c4)no3)n2)c1	MOLT-4 leukemia	n
COc1cc(/C=N/NC(=O)c2ccc3nc(-c4ccc(Cl)cc4)[nH]c3c2)cc(OC)c1OC	MOLT-4 leukemia	n
CN(C)c1ccc(/C=N/NC(=O)CSc2nc3sc4c(c3c(=O)n2-c2ccccc2)CCCCC4)cc1	MOLT-4 leukemia	n
[2H]C([2H])([2H])Oc1ccc(/C=C/C(=O)/C=C(O)/C=C/c2ccc(OC([2H])([2H])[2H])c(OC([2H])([2H])[2H])c2)cc1OC([2H])([2H])[2H]	MOLT-4 leukemia	n
CCOC(=O)c1cc(C(=O)c2cc(OC)cc(OC)c2)n2ncccc12	MOLT-4 leukemia	n
COc1cccc2cc(N(C)c3ncnc4ccccc34)ccc12	MOLT-4 leukemia	n
Cc1ccc(-c2nn(CC(=O)N3CCOCC3)c(N)c2C#N)cc1	MOLT-4 leukemia	n
CC(C)CCc1nc2ccc(NCc3ccc(OCCN4CCC(C)CC4)cc3)cc2[nH]1	MOLT-4 leukemia	n
COc1ccc(NC(=O)c2ccc(NC3=C(c4ccc(Cl)cc4)C(=O)NC3=O)cc2)cc1	MOLT-4 leukemia	n
COC(=O)CCc1c(/C=C2\N=C(c3ccc[nH]3)C=C2OC)[nH]c(C)c1C(=O)OCc1ccccc1	MOLT-4 leukemia	n
COc1ccc(-c2cc(-c3ccc(N(C)C)cc3)nc(NC(=O)c3cccnc3)n2)cc1	MOLT-4 leukemia	n

* * *

Form field: growth (one value per entry).
# Tested on: NCI-H322M lung
# experiment: NCI-60 one-dose screen, 48 h (100 = growth as untreated, 0 = no growth, -100 = all killed)
# conditions.used: 10 µM unless noted
The panel holds about 83,000 compounds, 20% with a hit somewhere; the sample as a whole holds those more often.

compound	growth (%)
O=C1NCCN1/N=C/c1c(Cl)n(Cc2ccc(Cl)cc2)c2ccccc12	110
COc1cc(OCc2cccc(-c3ccc4c(c3)OCCO4)c2C)cc(OC)c1C=O	85.3
COc1ccc(S(=O)(=O)Oc2ccc(-c3sc4cc(OS(=O)(=O)c5ccc(OC)cc5)ccc4c3C(=O)c3ccc(OCCN4CCCCC4)cc3)cc2)cc1	98.5
O=C1c2cccnc2C(=O)c2c1c(C(=O)OCCCN1CCOCC1)c1ccccn21	-51.5
CS(=O)(=O)Nc1cc(-c2ccc3ncnc(Nc4cccc(Cl)c4)c3c2)cnc1Cl	1.07
Cn1ccnc1C(=O)/C=C/c1ccc(C(=O)Nc2ccccc2F)cc1	14.6
C=CC(=O)NCc1cccc(Nc2ncc(Br)c(NCCCNC(=O)C3CCC3)n2)c1	-13.1
O=C(Nc1ncc(Cc2ccccc2Cl)s1)c1ccc2c(c1)OCCO2	48.9
Cc1ccc(C2(C)NC(=O)N(CC(=O)Nc3cccc(C)c3)C2=O)cc1 (stereo unspecified)	102
COc1cc(C(=O)c2c(-c3ccccc3)oc3ccccc23)cc(OC)c1O	53.4
C=CCNc1nc(O)c(/C=C2\C=Nc3ncccc32)s1	10.2
CN(C)C(=O)OCc1ccc2c(Cl)cc(Cl)c(O)c2n1	53.8
N#CC1=C(N)Oc2c(ccc3cccnc23)C1c1ccccc1 (stereo unspecified)	39.2
COC12C=C/C(=C(/C(=O)OCc3ccccn3)C(=O)CCCCCCCCC3(OC)C=C/C(=C(/C(=O)OCc4ccccn4)C(=O)CCCCCCCC1)O3)O2	-60
COc1ccccc1/C=C/C1=C(C)CCC(c2ccccc2OC)C1C (stereo unspecified)	33.4
CNC1=C([N+](=O)[O-])C(c2ccc(OC)cc2)C(C#N)=C(c2ccc[nH]2)O1 (stereo unspecified)	101
Cc1ccccc1NC(=O)c1sc2nc3c(cc2c1N)CCCC3	51.1
C1=C2CCCC3=Cc4ccccc4OC23Oc2ccccc21	50.8
O=C1C(c2c(O)[nH]c3ncccc23)=Nc2ccccc21	79.7
O=C(CN1C(=O)c2ccccc2S1(=O)=O)Nc1nc(-c2cc3ccccc3oc2=O)cs1	97.3
O=C1/C(=C/c2ccccc2)COc2ccc(O)cc21	99.3

* * *

# Tested on: SK-MEL-2 melanoma
# experiment: NCI-60 one-dose screen, 48 h
# conditions.used: 10 µM unless noted
About 83,000 compounds went through this panel and 20% of them were active in at least one assay; those are over-represented in the sample as a whole. The source made the active and inactive calls. Rule for the calls: active = growth percent below 10; inactive = the rest.
Labels: active, inactive

molecule	class.label
CC(C)CCc1nc2ccc(NCc3ccc(OCCN4CCC(C)CC4)cc3)cc2[nH]1	inactive
COc1ccc(/C=N/NC(=O)Cn2nnc3ccccc32)cc1	inactive
CCOC(=O)CCC(=O)P(=O)(O)O	inactive
CC(=O)c1ccc(Nc2nccc(-c3ccc(Cl)cc3)n2)cc1	inactive
COc1ccc(CNc2ccc3nc(CCC4CCCCC4)[nH]c3c2)cc1	inactive
COc1ccc(N2C(=O)/C(=C/C(Cl)=C/c3ccc([N+](=O)[O-])cc3)SC2=S)cc1	inactive
Cc1ccc(C(=O)Nc2ccc(CN3CCN(C)CC3)c(C(F)(F)F)c2)cc1C#Cc1cnc(N)c2ccccc12	active
COc1nc2ccccc2cc1/C=C1/C=C(c2ccccc2)NC1=O	inactive
O=C1/C(=C/c2cccc(Br)c2)COc2ccc(O)c(O)c21	active
COc1ccc(-c2cc(-c3ccc(Nc4nc(Nc5ccc(Cl)cc5)nc(Nc5ccc(Cl)cc5)n4)cc3)no2)cc1	inactive
O=C(Nc1ncc(Cc2ccccc2)s1)c1cc(-c2ccccc2)nc2ccccc12	inactive
C=C(C[n+]1ccccc1)[C@@H]1CC[C@]2(C(=O)OC)CC[C@]3(C)[C@H](CC[C@@H]4[C@@]5(C)CCC(=O)C(C)(C)[C@@H]5CC[C@]43C)[C@@H]12	inactive
O=C(/C=C\c1ccc(O)c(O)c1)c1ccccc1O	inactive
Cc1nc2sc(C(=O)Nc3ccccc3)c(N)c2cc1C(O)c1ccccc1 (stereo not drawn)	inactive
O=S(=O)(c1ccc(NCSc2nc3ccccc3s2)cc1)c1ccc(NCSc2nc3ccccc3s2)cc1	inactive
CNC(=O)c1cc(Oc2ccc3nc(NC(=O)Nc4ccc(F)cc4F)sc3c2)ccn1	inactive
O=S(=O)(Nc1ccc(Br)cc1)c1ccc(-c2cnc(C3CC3)o2)cc1	inactive
Cc1nc2c(c(-c3ccccc3)n1)Cc1c(ccc3ccccc13)O2	inactive
O=C1CCC(C(=O)N/N=C/c2ccc([N+](=O)[O-])cc2)N1 (stereo not drawn)	inactive
O=C1CCc2c(sc3[nH]c(=S)n(-c4cc(C(F)(F)F)cc(C(F)(F)F)c4)c(=O)c23)C1	active
COc1cc(/C=C2\C(=O)N(CCOc3cc(O)c4c(=O)cc(-c5ccccc5)oc4c3)c3ccccc32)cc(OC)c1O	inactive
CCCn1cnc2c(c1=N)C(c1ccc(Cl)cc1)c1sc3c(F)cccc3c1O2 (stereo not drawn)	inactive
COc1cc(-c2ccc(-c3ccc(C(=N)N)s3)s2)cc(OC)c1OC	inactive
Cc1cc2c(c(C)n1)CN(C(=O)Nc1nc(-c3cncs3)ccc1N)C2	inactive
Cc1cc(C)n(C(=O)CSc2nc3sc4c(c3c(=O)n2-c2ccccc2)CCCCC4)n1	inactive
COc1cc(C2=Nc3c(N)nc(N)nc3NC(c3cccc(Nc4ccnc5cc(C(F)(F)F)ccc45)c3)C2)cc(OC)c1OC (stereo not drawn)	inactive
Cc1nc2ccccc2c(/C=C/c2ccc(Br)cc2)c1C(=O)/C=C/c1ccccc1	active
CCc1ccc(Cc2cnc(NC(=O)c3cc(C)oc3C)s2)cc1	inactive
O=C(CSc1nnc(-c2cc(-c3ccc(Cl)cc3)nc3ccccc23)n1-c1ccccc1)Nc1ccc(Cl)cc1	inactive
FC(F)(F)c1cc(N2CCCCC2)nc(NCCCNc2ccnc3cc(Cl)ccc23)n1	inactive
O=c1oc2ccccc2cc1-c1nn(-c2ccccc2)cc1/C=N/Nc1nc(-c2ccccc2)c(N=Nc2ccccc2)s1	inactive
c1ccc(-c2nc(N3CCNCC3)c3oc(-c4ccccc4)nc3n2)cc1	active
COc1ccc(-c2cc(-c3ccc(N(C)C)cc3)nc(NC(=O)c3cccnc3)n2)cc1	inactive
C#Cc1c(I)n(C2OC(CO[Si](C)(C)C(C)(C)C)C3OC(C)(C)OC32)c(=O)[nH]c1=O (stereo not drawn)	inactive
CC1=C(C(=O)OCc2ccccc2)C(c2ccc3c(c2)OCO3)n2c(nc3ccccc32)N1 (stereo not drawn)	inactive
O=C(CSc1nnc(-c2ccc(Cl)c(Cl)c2)n1-c1ccccc1)Nc1ccc(C(=O)/C=C/c2ccc(Cl)cc2)cc1	inactive
CCN(CC)CCOc1ccc(/C(=C(\C)Cc2ccc(OC)cc2)c2ccc(O)cc2)cc1	active
O=C(Nc1ncc(Cc2ccc(Cl)cc2)s1)c1ccc2c(c1)OCCO2	inactive

# credit: PubChem BioAssay (NCI)
